Value source: paper PMC4962987

Target: FhCL1 (Fasciola hepatica, UniProt Q7JNQ9)
Construct: gene CL1
Sequence (Q7JNQ9 108-326): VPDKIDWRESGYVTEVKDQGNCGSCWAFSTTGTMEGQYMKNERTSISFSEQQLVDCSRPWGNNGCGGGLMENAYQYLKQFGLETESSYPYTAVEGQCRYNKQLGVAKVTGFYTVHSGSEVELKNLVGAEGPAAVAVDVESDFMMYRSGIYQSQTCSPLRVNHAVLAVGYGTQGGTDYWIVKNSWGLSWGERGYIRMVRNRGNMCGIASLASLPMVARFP
Assay: biochemical
Design: fluorogenic peptide-AMC hydrolysis (Z-VLK-AMC FhCL1, Tos-GPR-AMC FhCL3), initial rates, 5 min preincubation
REPORTED ENDPOINT: inhibition at 10 µM (%)

MOLECULE	RESULT UNITS	inhibition at 10 µM
O=C(/C=C/c1cccs1)c1ccccc1O [C24]	%	52

a. O=c1cc(-c2ccc(Br)cc2)oc2ccccc12 [C38]
b. O=C(/C=C/c1ccc2ccccc2c1)c1ccc2ccccc2c1O [C33]
Which is greater in inhibition at 10 µM, the first item a or the second item b ? Respond with the label that goes with your answer. b

* * *

Biological target: FhCL3 (Fasciola hepatica)
Construct: gene CL3
Sequence (B3TM67 88-306): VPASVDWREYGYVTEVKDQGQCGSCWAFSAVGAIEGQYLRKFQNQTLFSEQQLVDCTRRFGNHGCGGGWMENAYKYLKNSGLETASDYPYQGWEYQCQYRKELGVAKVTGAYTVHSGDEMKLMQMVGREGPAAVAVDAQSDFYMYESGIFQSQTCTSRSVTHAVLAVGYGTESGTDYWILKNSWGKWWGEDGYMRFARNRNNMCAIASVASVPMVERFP
Test: biochemical
Set-up: fluorogenic peptide-AMC hydrolysis (Z-VLK-AMC FhCL1, Tos-GPR-AMC FhCL3), initial rates, 5 min preincubation
Details: read-out: % inh. FhCL3
REPORTED ENDPOINT: inhibition at 10 µM (%)
# output: bare number, implied unit %

# annotated cases, reported inhibition at 10 µM shown
COMPOUND	inhibition at 10 µM (%)
O=C(/C=C/c1cccs1)c1ccccc1O [C24]	9
O=C(/C=C/c1ccccc1)c1ccc2ccccc2c1 [C27]	13

Attention now turns to another entry.
What does the data say about its inhibition at 10 µM? Entry: O=C(/C=C/c1ccc2ccccc2c1)c1c(O)ccc2ccccc12 [C35] 44
